Entries annotated with measured GTPγS -hR2 PAM pEC50
- measurement.target: human mGluR2 receptor (Homo sapiens, UniProt Q14416)
- Construct: expressed in transfected cells; host or cells: CHO cells (membranes)
- Sequence (Q14416 19-872): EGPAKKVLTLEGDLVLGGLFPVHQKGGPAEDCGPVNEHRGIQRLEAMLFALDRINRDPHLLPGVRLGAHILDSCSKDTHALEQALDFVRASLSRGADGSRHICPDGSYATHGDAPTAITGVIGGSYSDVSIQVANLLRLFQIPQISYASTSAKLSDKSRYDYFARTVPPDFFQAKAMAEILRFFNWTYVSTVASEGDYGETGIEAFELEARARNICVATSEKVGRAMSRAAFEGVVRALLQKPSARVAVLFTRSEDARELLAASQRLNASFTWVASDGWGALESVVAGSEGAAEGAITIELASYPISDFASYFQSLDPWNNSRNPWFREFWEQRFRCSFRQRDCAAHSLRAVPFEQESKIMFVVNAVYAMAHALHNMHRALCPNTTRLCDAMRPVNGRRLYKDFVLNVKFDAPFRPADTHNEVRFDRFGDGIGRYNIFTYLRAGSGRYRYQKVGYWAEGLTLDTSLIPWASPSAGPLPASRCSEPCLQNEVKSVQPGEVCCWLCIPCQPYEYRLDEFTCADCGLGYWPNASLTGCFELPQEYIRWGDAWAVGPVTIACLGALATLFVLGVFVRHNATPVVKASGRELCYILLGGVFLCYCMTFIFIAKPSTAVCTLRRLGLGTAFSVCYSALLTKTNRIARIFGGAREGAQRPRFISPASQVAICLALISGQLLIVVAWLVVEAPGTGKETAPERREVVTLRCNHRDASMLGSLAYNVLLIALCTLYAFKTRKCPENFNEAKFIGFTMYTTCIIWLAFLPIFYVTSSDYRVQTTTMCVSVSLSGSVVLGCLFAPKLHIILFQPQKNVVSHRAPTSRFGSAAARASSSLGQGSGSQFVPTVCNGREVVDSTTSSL
- experiment.summary: [35S]GTPγS binding assay (PAM)
- Assay type: biochemical
- run.conditions: in presence of glutamate at predetermined EC20; membranes from CHO cells transfected with human mGluR2
Just the number, please, no unit after it.

# count of solved cases: 6
Task item: Given `FC(F)(F)c1c(-c2ccc(N3CCOCC3)nc2)ccn2c(CC3CC3)nnc12` , state its recorded GTPγS -hR2 PAM pEC50.
Reply: 5.90

Task item: Quick one: GTPγS -hR2 PAM pEC50 for `CCOCc1nnc2c(C(F)(F)F)c(-c3ccc(Oc4cc(C)nc(C)c4)c(F)c3)ccn12` ?
Reply: 6.63

Task item: Which value of GTPγS -hR2 PAM pEC50 has been reported for `FC(F)(F)c1c(-c2ccc(N3CCCCC3)nc2)ccn2c(CC3CC3)nnc12` in the records?
Reply: 6.67

Task item: Sample `FC(F)(F)c1c(-c2ccc(CNC3CCOCC3)c(Cl)c2)ccn2c(CC3CC3)nnc12` — what was its GTPγS -hR2 PAM pEC50?
Reply: 6.21

Task item: Would you mind telling me what GTPγS -hR2 PAM pEC50 value was observed for `CC1(O)CCN(Cc2ccc(-c3ccn4c(CC5CC5)nnc4c3C(F)(F)F)cc2Cl)CC1` ?
Reply: 6.49

Task item: // GTPγS -hR2 PAM pEC50 lookup, key: `Clc1c(-c2ccc(Oc3ccccc3)cc2)ccn2c(C3CCC3)nnc12`
Reply: 6.88

***
Task item: // GTPγS -hR2 PAM pEC50 lookup, key: `FC(F)(F)c1c(-c2ccc(CN3CCOCC3)c(Cl)c2)ccn2c(CC3CC3)nnc12`
Reply: 7.02

Task item: Recorded GTPγS -hR2 PAM pEC50 for `CCOCc1nnc2c(C(F)(F)F)c(-c3ccc(Oc4ccc(C)nc4C)c(F)c3)ccn12` , please?
Reply: 7.51

Task item: // lookup GTPγS -hR2 PAM pEC50 for `Fc1cc(-c2ccn3c(CC4CC4)nnc3c2Cl)ccc1NC1CC1`
Reply: 7.20

Task item: Using the record for `CC(C)Nc1ccc(-c2ccn3c(CC4CC4)nnc3c2Cl)cc1F` , report its GTPγS -hR2 PAM pEC50.
Reply: 6.65

Task item: Value lookup for GTPγS -hR2 PAM pEC50; key = `Cc1cc(Oc2ccc(-c3ccn4c(CC5CC5)nnc4c3C(F)(F)F)cc2F)cc(C)n1`
Reply: 7.16

Task item: Record request: GTPγS -hR2 PAM pEC50 value, item `FC(F)(F)c1c(-c2ccc(NC3CC3)c(Cl)c2)ccn2c(CC3CC3)nnc12`
Reply: 8.15

Task item: # query: GTPγS -hR2 PAM pEC50 of entry `Cc1cc(Oc2ccc(-c3ccn4c(CCC5CC5)nnc4c3Cl)cc2F)ccn1`
Reply: 6.54
